B1: 1-phosphatidylinositol 4,5-bisphosphate phosphodiesterase gamma-2, residues 772 to 827; numbered along this chain, P16885 (parent)
chain: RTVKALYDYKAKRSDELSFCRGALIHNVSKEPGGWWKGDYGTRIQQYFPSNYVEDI

Variants of: B1
MEASUREMENT NOTES: abundance fitness (aPCA) (normalised: wild type 0, dead -1); higher = more abundant; growth selection in yeast, the domain comes from the species named
RUN CONDITIONS: Homo sapiens

SEQUENCE VARIANT | abundance fitness
N27G | -0.654
G41H | -0.151
K10Y | -0.106
G38A | -0.83
Y52N | -0.605
D8F | -0.382
S18C | -0.512
V3M | -0.017
A23K | -0.745
I25L | -0.386
D39K | -0.74

src = the Human Domainome abundance scans (Beltran et al. 2025)
